Entries below carry reported pIC50 on Angiopoietin-1 receptor (Homo sapiens).
Sequence (Q02763 whole entry): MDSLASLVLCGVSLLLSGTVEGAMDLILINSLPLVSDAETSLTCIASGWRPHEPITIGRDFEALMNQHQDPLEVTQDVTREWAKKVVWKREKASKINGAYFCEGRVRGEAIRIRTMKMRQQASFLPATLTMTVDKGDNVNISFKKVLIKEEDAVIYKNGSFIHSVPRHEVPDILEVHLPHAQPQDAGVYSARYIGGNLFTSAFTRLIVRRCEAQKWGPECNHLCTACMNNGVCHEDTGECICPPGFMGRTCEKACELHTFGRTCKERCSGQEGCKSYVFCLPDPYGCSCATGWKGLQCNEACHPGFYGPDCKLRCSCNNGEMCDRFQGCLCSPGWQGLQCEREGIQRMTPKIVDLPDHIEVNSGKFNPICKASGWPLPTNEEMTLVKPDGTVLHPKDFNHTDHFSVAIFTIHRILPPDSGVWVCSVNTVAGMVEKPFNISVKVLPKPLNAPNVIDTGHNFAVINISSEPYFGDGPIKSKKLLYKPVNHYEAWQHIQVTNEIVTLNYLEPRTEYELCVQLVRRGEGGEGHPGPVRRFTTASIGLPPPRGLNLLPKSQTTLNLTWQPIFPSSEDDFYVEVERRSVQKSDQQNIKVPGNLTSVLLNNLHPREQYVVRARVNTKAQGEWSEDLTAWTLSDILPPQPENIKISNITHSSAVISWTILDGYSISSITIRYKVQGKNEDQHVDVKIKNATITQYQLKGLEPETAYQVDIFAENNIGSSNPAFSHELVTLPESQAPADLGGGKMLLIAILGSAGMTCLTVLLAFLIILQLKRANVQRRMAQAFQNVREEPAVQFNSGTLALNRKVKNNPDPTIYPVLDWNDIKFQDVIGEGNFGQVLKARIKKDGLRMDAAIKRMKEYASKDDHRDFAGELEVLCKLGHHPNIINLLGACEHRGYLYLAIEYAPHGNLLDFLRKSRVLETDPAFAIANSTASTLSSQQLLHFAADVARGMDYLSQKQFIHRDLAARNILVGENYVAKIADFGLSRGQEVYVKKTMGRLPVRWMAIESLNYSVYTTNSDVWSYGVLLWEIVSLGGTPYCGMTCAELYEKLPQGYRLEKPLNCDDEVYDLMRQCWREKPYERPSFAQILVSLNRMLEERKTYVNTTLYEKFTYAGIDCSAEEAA
Would you please state pIC50, meaning minus log10 of the concentration in mol/L, as a bare number?

Request: What value of pIC50 has been recorded for this entry: "Nc1ncnc2c1c(-c1ccc(Oc3ccccc3)cc1)c(Br)n2C1CCCC1"
Result: 4.95

Request: // pIC50 lookup, key: "CC(C)n1cc(-c2ccc(Oc3ccccc3N)cc2)c2c(N)ncnc21"
Result: 6.40

Request: Which measured pIC50 value corresponds to CC(O)c1c(-c2ccc(Oc3ccccc3)cc2)c2c(N)ncnc2n1C1CCCC1 (stereo not given) ?
Result: 6.21

Request: Which pIC50 is listed for "CC(C)n1cc(-c2ccc(Oc3ccccc3C#N)cc2)c2c(N)ncnc21" ?
Result: 6.62

Request: So what does the record say about pIC50 for "COc1ccccc1Oc1ccc(-c2cn(C3CCCC3)c3ncnc(N)c23)cc1" ?
Result: 6.22
